- test protocol: NCI Yeast Anticancer Drug Screen. Data for the rad50EPP+ strain (AID 151);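 also: 0% = growth of vehicle-treated control cultures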
- assay setup: S. cerevisiae rad50 mutant strain, at 33.0 µM, stronger effect = higher value
About 79,000 compounds went through this panel and 15% of them were active in at least one assay; those are over-represented in the sample as a whole.
metric: growth inhibition (%)
Answers are plain numbers, in %.

Reference set, count: 5
c1ccc2c(c1)sc1nc3ccncc3nc12 85
Cn1c(=O)c(-c2ccccc2)c(N=[N+]=[N-])c2ccccc21 4
O=[N+]([O-])/C=C/c1ccc2ccccc2c1 99
NCCNc1ccc(NCCN)c2c1C(=O)c1c(O)ccc(O)c1C2=O 87
O=C1C=CC(=C(c2ccccc2)c2ccccc2)c2ccccc21 15

Value of growth inhibition reported for the compound CN=C(N)N/N=C/c1ccc2c(c1)Cc1ccccc1-2 is 32

---

Can you tell me growth inhibition for the items I'm about to list?
- test protocol: NCI Yeast Anticancer Drug Screen. Data for the rad50 strain (AID 155);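 also: 0% = growth of vehicle-only cultures of the same strain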
- assay setup: S. cerevisiae rad50 strain growth inhibition; at 50.0 µM; stronger effect = higher value
This is part of a sample that, as a whole, favours compounds with a hit. Of some 79,000 tested, about 15% had one in any assay.
Numbers only, in %.

Consider the following illustrative entries.
compound	growth inhibition (%)
CCOc1ccc2c(c1)c(CC(=O)O)cn2C	32.8
CC(=O)Nc1ccc(SC(C)=O)cc1	70.7

Quick one: give me growth inhibition for each item below, same order please.
1. S=c1[nH]nc(Nc2ccc(Cl)cc2)s1
2. CCCCOC(=O)N[C@H]1CCc2cc(OC)c(OC)c(OC)c2-c2ccc(SC)c(=O)cc21

Outgoing:
[92.8, 82.5]

For each of the compounds below, note its growth inhibition.
1. O=C(N=Nc1ccccc1Cl)NNc1ccccc1Cl
2. CC(=O)SCCC[Si](C)(C)CCCSC(C)=O
3. CCOP(=O)(OCC)C(Cc1ccccc1)N=C(c1ccccc1)c1ccccc1 (centres undefined)
4. CCCCc1cc(O)ccc1O
5. c1ccc(-c2ccnc3c2ccc2c(-c4ccccc4)ccnc23)cc1
6. c1ccc2c(c1)-c1nc3ccccc3cc1C2N1CCOCC1 (centres undefined)

Outgoing:
[44.5, 55.2, 98.6, 20.7, 91.2, 72.7]

Each compound below has a reported value. Please supply its growth inhibition.
1. CCCCCCCCCCCCCCC(C(=O)[O-])[n+]1ccccc1 (centres undefined)
2. Cc1ccc(Cl)c2[nH]c(-c3ccccc3)cc(=O)c12
3. N#Cc1ccc(C2NN=CC23C(=O)c2ccccc2OC3c2ccccc2)cc1 (centres undefined)

Outgoing:
[98.5, 29.2, 73.3]

Please supply growth inhibition for each of the following items, keeping them in order.
1. Cc1ccc(NN(NC(=O)OC(C)C)C(=O)OC(C)C)cc1
2. CSC1=NNC(SC)=NN1

Outgoing:
1. 23.1
2. 59.9

---

- test protocol: NCI Yeast Anticancer Drug Screen. Data for the mlh1 rad18 strain (AID 175)
- assay setup: S. cerevisiae mlh1 rad18 strain growth inhibition; at 50.0 µM (retest, dose inferred, filed as 5.0); stronger effect = higher value
About 79,000 compounds went through this panel and 15% of them were active in at least one assay; those are over-represented in the sample as a whole.
metric: growth inhibition (%)
Numbers only, in %.

A selection of reference data follows.
molecule	endpoint result
O=[N+]([O-])c1cc(CCl)ccc1CCl	99
COP(=O)(OC)/C(=C\C1=CN(C(c2ccccc2)(c2ccccc2)c2ccccc2)CN1)NC=O	-8
OC1CSCCCSCCSCCCSC1	22

Parameters: items (list). Returns: growth inhibition for each item.
1. CCOC(=O)c1cc([N+](=O)[O-])cc([N+](=O)[O-])c1Sc1ncnc2nc[nH]c12
2. CC(C(=O)N1C(=O)N(C(=O)[C@H](C)C(O)c2ccccc2)[C@H](c2ccccc2)[C@H]1c1ccccc1)[C@@H](O)c1ccccc1 (stereo not given in full)
3. c1ccc(-c2ccnc3c2ccc2c(-c4ccccc4)ccnc23)cc1
4. CN1c2ccc(Cl)cc2C(=O)NC1c1ccc([N+](=O)[O-])s1 (stereo not given)
5. CC(=O)OC1CCC2(C)C(=CCC3C4CCC5(OC6CC(C)CN(C(C)=O)C6C5C)C(C)=C4C(=O)C32)C1 (stereo not given)
6. [N-]=N[N+]#I1OC(C(F)(F)F)(C(F)(F)F)c2ccccc21

Outgoing:
1: 89; 2: 37; 3: 97; 4: 98; 5: 98; 6: 99

Hi there! I need growth inhibition for each item below, if you can.
1. CCC/C(Cl)=N\OC(=O)Nc1ccc(Br)cc1
2. CC(C)c1cc(C(C)C)c(O)c(C([O-])[O-])c1.CC(C)c1cc(C(C)C)c(O)c(C([O-])[O-])c1.CC(C)c1cc(C(C)C)c(O)c(C([OH2+])[OH2+])c1.CC(C)c1cc(C(C)C)c(O)c(C([OH2+])[OH2+])c1.[Cu+2].[Cu+2].[OH3+].[OH3+]
3. C=C(CN(C)C)C(=O)c1cc(C)ccc1C
4. CCCCCCCCCCC(=O)Cl
5. Cc1[nH]c2ccccc2c1C(c1ccc(N)cc1)c1c(C)[nH]c2ccccc12

Outgoing:
1. 99
2. 59
3. 99
4. 99
5. 96

Batch of 6 molecules: report growth inhibition for each.
1. COC1C=COC2(C)Oc3c(C)c(O)c4c(c3C2=O)/C(=N/C2CCC(O)OC2C)C=C(NC(=O)/C(C)=C\C(=O)C2CC2C(O)C(C)C(O)C(C)C(OC(C)=O)C1C)C4=O (stereo not given)
2. CCC/C(Cl)=N\OC(=O)Nc1cccc(C(F)(F)F)c1
3. COc1cc(C2c3cc4c(cc3OC(Nc3ccccc3)C2C)OCO4)cc(OC)c1O (stereo not given)
4. C#CCCCc1ccccc1
5. CN(N=O)N1C(=O)SCC(c2ccccc2)(c2ccccc2)C1=O
6. CCCCOC(=O)N[C@H]1CCc2cc(OC)c(OC)c(OC)c2-c2ccc(SC)c(=O)cc21

Outgoing:
1. 48
2. 99
3. 99
4. 70
5. 71
6. 47
